- experimental-system: unphosphorylated-BTK kinase domain (UP-BTK), GST-tagged human BTK (389-659aa) (Homo sapiens (Human), UniProt Q06187)
- Sequence (Q06187 389-659): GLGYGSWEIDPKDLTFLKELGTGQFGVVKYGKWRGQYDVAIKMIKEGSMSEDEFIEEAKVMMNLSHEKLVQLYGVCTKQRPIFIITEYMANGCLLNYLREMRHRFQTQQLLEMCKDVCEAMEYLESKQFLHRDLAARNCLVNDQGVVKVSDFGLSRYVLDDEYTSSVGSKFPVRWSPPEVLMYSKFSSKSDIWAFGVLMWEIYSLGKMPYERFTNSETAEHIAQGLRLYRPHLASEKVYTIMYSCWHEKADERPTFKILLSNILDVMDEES
- experiment-summary: BTK kinase Lanthascreen binding assay
- condition-context: unphosphorylated-BTK kinase domain, 50 nM Tracer 236, 60 minutes; pIC50 = negative log of the IC50 in molar
property-label: BTK_I_binding pIC50

compound	test-result
CN(C)CC(=O)N1CCC[C@@H](NC(=O)c2sc3nccc4c3c2NC(=O)N4c2ccc(Oc3ccccc3)cc2)C1	7.2
Cc1cc(Oc2ccccc2)ccc1N1C(=O)Nc2c(C(=O)N[C@@H]3CCN(C(=O)/C(C#N)=C/C4CC4)C3)sc3nccc1c23 (single isomer, unassigned)	7.6
C/C=C\C(=O)N1CCC[C@@H](NC(=O)c2sc3nccc4c3c2NC(=O)N4c2ccc(Oc3ccccc3)cc2C)C1 (single isomer, unassigned) [Example 476]	7.4
C=CC(=O)N1C[C@@H](O)[C@@H](NC(=O)c2sc3nccc4c3c2NC(=O)N4c2ccc(Oc3ccccc3)cc2C)C1 (relative stereo)	7.6
Cc1cc(Oc2ccccc2)ccc1N1C(=O)Nc2c(C(=O)N[C@@H]3CCN(C(=O)/C=C/CN4C[C@@H]5OCCO[C@@H]5C4)C3)sc3nccc1c23 (single isomer, unassigned)	8.1

---

- experimental-system: unphosphorylated-BTK kinase domain (UP-BTK), GST-tagged human BTK (389-659aa) (Homo sapiens (Human))
- experiment-summary: BTK kinase Lanthascreen binding assay
- condition-context: pIC50 = negative log of the IC50 in molar; 60 minutes incubation, 50 nM Tracer 236
property-label: BTK_I_binding pIC50

> print(dat)
                                   compound  test.result
1  Cc1cc(Oc2cccc3ccoc23)ccc1N1C(=O)Nc2c(C(=O)N[C@@H]3CCCN(C)C3)sc3nccc1c23 [Example 70]          7.1
2  Cc1cc(Oc2ccccc2)ccc1N1C(=O)Nc2c(C(=O)NC[C@H]3CCCN3)sc3nccc1c23 [Example 276]          6.3
3  Cc1cc(Oc2ccccc2)ccc1N1C(=O)Nc2c(C(=O)N[C@H]3CCCOC3)sc3nccc1c23 [Example 67]          7.5
4  Cc1cc(Oc2ccccc2)ccc1N1C(=O)Nc2c(C(=O)NC3CN(C(=O)/C(C#N)=C/C4CC4)C3)sc3nccc1c23 [Example 229]          6.7
5  Cc1cc(Oc2ccccc2)ccc1N1C(=O)Nc2c(C(=O)N[C@@H]3CCN(C(C)C)C3)sc3nccc1c23 [Example 118]          6.9
6  C=CC(=O)N1CC(O)[C@@H](NC(=O)c2sc3nccc4c3c2NC(=O)N4c2ccc(Oc3ccccc3)cc2C)C1 (stereo in doubt) [Example 50]          7.5
7  Cc1cc(Oc2ccccc2)ccc1N1C(=O)Nc2c(C(=O)N[C@@H]3CCN(C(=O)/C=C/CO)C3)sc3nccc1c23 [Example 30]          7.6

---

- experimental-system: unphosphorylated-BTK kinase domain (UP-BTK), GST-tagged human BTK (389-659aa) (Homo sapiens (Human), UniProt Q06187)
- experiment-summary: BTK kinase Lanthascreen binding assay
- condition-context: pIC50 = negative log of the IC50 in molar; 60 minutes incubation, 50 nM Tracer 236
property-label: BTK_I_binding pIC50

> print(dat)
                                   compound  test.result
1  Cc1cc(Oc2ccccc2)ccc1N1C(=O)Nc2c(C(=O)N[C@@H]3CCCN(C(=O)[C@@H]4CCNC4)C3)sc3nccc1c23          7.1
2  Cc1cc(Oc2ccccc2)ccc1N1C(=O)Nc2c(C(=O)NC3CCCN(C(=O)/C=C/CO)C3)sc3nccc1c23 (stereo in doubt)          7.5
3  Cc1c(N2C(=O)Nc3c(C(=O)N[C@@H]4CCCOC4)sc4nccc2c34)ccc(Oc2ccccc2)c1F          7.5
4  O=C(N[C@@H]1CCCNC1)c1sc2nccc3c2c1NC(=O)N3c1ccc(Cl)c(C(F)(F)F)c1          5.8
